Below, each entry is listed with its recorded TGI.
- System: RPMI-8226 leukemia
- PROTOCOL_NOTES: NCI tumour cell line growth inhibition, 48 h

COMPOUND: O=C(N/N=C\c1cccc2ccccc12)Nc1ccc([N+](=O)[O-])cc1
RELATION_QUALIFIER: >
TGI (µM): 100

COMPOUND: COc1ccc(-c2nn(-c3cccc(Cl)c3)cc2C=C(C#N)C#N)cc1
RELATION_QUALIFIER: =
TGI (µM): 7.1

COMPOUND: Nc1ccc(-c2nc3ccc4[nH]ncc4c3c3c2CCCC3)cc1F
RELATION_QUALIFIER: =
TGI (µM): 7.37

COMPOUND: NC(Cc1cc(I)c(O)c(I)c1)C(=O)O (centres undefined)
RELATION_QUALIFIER: >
TGI (µM): 500

COMPOUND: COC(=O)C(=O)C1(CCC(C)=O)c2ccccc2-c2ccccc21
RELATION_QUALIFIER: >
TGI (µM): 100

COMPOUND: Cn1c2c([N+](=O)[O-])[se]nc2c(=O)n1-c1ccc([N+](=O)[O-])cc1
RELATION_QUALIFIER: =
TGI (µM): 5.51

COMPOUND: C=C(C=O)C1CC(=O)C(C(=O)OC)[C@@H]2O[C@@](C)(CC2=O)C[C@@H]2OC(=O)[C@]3(O[C@@H]23)[C@@H](C(=O)OC)C1 (some centres undefined)
RELATION_QUALIFIER: =
TGI (µM): 21.8

COMPOUND: C/C(O)=C(\C=N\C(N)=S)C(=O)Nc1ccccc1C
RELATION_QUALIFIER: >
TGI (µM): 100

COMPOUND: CC1=C(C(=O)OCCc2ccc([N+](=O)[O-])cc2)C(c2ccccc2[N+](=O)[O-])C(C(=O)OC(C)C)=C(C)N1 (centres undefined)
RELATION_QUALIFIER: >
TGI (µM): 100

----------
Let's look at some compounds and their measured TGI.
- Tested on: OVCAR-4 ovarian
- PROTOCOL_NOTES: NCI tumour cell line growth inhibition, 48 h
MEASUREMENT_NAME: TGI

COMPOUND: CN1/C(=C\C(I)C(I)C2=[N+](C)c3ccccc3C2(C)C)C(C)(C)c2ccccc21 (stereo unspecified)
ASSAY_SYSTEM: OVCAR-4 ovarian
MEASUREMENT_NAME: TGI
RESULT: 22.5 µM

COMPOUND: O=C1C2c3[nH]c4ccccc4c3[C@@H]3CCCCCCCCCCC3C2C(=O)N1c1ccccc1 (stereo partly specified)
ASSAY_SYSTEM: OVCAR-4 ovarian
MEASUREMENT_NAME: TGI
RESULT: 57.5 µM

COMPOUND: CN=C(Nn1cnnc1)OC
ASSAY_SYSTEM: OVCAR-4 ovarian
MEASUREMENT_NAME: TGI
RESULT: > 100 µM

COMPOUND: O=c1[nH]cc(CS(=O)(=O)Cc2c[nH]c(=O)[nH]c2=O)c(=O)[nH]1
ASSAY_SYSTEM: OVCAR-4 ovarian
MEASUREMENT_NAME: TGI
RESULT: > 100 µM

COMPOUND: O=C(C1=C(C(=O)c2ccccc2)SC2(S1)C(C(=O)c1ccccc1)=C(C(=O)c1ccccc1)Sc1c2ssc1=O)c1ccccc1
ASSAY_SYSTEM: OVCAR-4 ovarian
MEASUREMENT_NAME: TGI
RESULT: > 100 µM

COMPOUND: CS(=O)(=O)OCCN1CCC2(CC1)SSC1(CCN(CCOS(C)(=O)=O)CC1)S2
ASSAY_SYSTEM: OVCAR-4 ovarian
MEASUREMENT_NAME: TGI
RESULT: > 100 µM

COMPOUND: O=S1(=O)NNC(=NCc2ccc(Cl)cc2)c2ccccc21
ASSAY_SYSTEM: OVCAR-4 ovarian
MEASUREMENT_NAME: TGI
RESULT: > 100 µM

COMPOUND: COC(=O)c1ccc(-c2nc(C#N)c(N)o2)cc1
ASSAY_SYSTEM: OVCAR-4 ovarian
MEASUREMENT_NAME: TGI
RESULT: > 100 µM

COMPOUND: COc1ccc(-c2oc(=O)ccc2C#Cc2cc(OC)c(OC)c(OC)c2)cc1O
ASSAY_SYSTEM: OVCAR-4 ovarian
MEASUREMENT_NAME: TGI
RESULT: > 100 µM

COMPOUND: O=C(Nn1c(-c2ccccc2)nc2ccccc2c1=O)c1ccccn1
ASSAY_SYSTEM: OVCAR-4 ovarian
MEASUREMENT_NAME: TGI
RESULT: > 100 µM

COMPOUND: C#CCNC(Cc1cnc[nH]1)C(=O)O (stereo unspecified)
ASSAY_SYSTEM: OVCAR-4 ovarian
MEASUREMENT_NAME: TGI
RESULT: > 100 µM

----------
Overview of reported TGI across a group of compounds:
- Test system: SW-620 colon
- PROTOCOL_NOTES: NCI tumour cell line growth inhibition, 48 h

COMPOUND: COc1ccc2c(c1)CCC1C2CC[C@@]2(C)C1CC[C@@]2(O)CNC(=O)/C=C/c1ccc(O)c(OC)c1 (some centres not stated)
TGI: > 100 µM
--
COMPOUND: COc1ccc(/C=C2\Cc3ccccc3C2=O)cc1OC
TGI: > 100 µM
--
COMPOUND: O=C(Nn1c(-c2ccccc2)nc2ccccc2c1=O)c1ccccn1
TGI: > 100 µM
--
COMPOUND: CC(C)(C)N=C1CC(C)(C)c2ccccc2C(=Nc2ccccc2)S1
TGI: > 100 µM
--
COMPOUND: COc1cc([C@@H]2c3cc4c(cc3[C@@H](NC(=O)c3ccc(N)cc3)C3COC(=O)[C@@H]32)OCO4)cc(OC)c1O (some centres not stated)
TGI: 20.8 µM
--
COMPOUND: CC1=NNC(=NCCN(C)C)C/C1=C/c1ccccc1Cl
TGI: > 100 µM
--
COMPOUND: Nc1ccc(-c2nc3ccc4[nH]ncc4c3c3c2CCCC3)cc1F
TGI: 7.52 µM
--
COMPOUND: O=NC1c2cccc3cccc(c23)C1N=O (configuration not stated)
TGI: 12.7 µM
--
COMPOUND: CC(=O)Oc1ccc(OC(C)=O)c2ccccc12
TGI: 33.2 µM
--
COMPOUND: CC1(C)N=C(N)N=C(N)N1c1cccc(C#N)c1
TGI: > 100 µM
--
COMPOUND: CN(C)CCOC(=O)COc1ccc(Cl)cc1
TGI: > 100 µM
--
COMPOUND: O=C(N/N=C\c1cccc2ccccc12)Nc1ccc([N+](=O)[O-])cc1
TGI: > 100 µM
--
COMPOUND: c1ccc2c(CNCCCCCCNCc3cccc4ccccc34)cccc2c1
TGI: 14.1 µM
--
COMPOUND: S=c1nc[nH]c2c1ncn2Cc1ccco1
TGI: > 100 µM
--
COMPOUND: C[Si](C)(C)/C=C/CCC(C=O)(CCCl)c1ccccc1 (configuration not stated)
TGI: > 100 µM
--
COMPOUND: Clc1nc(-[n+]2ccc(-c3ccncc3)cc2)nc(Nc2ccccc2)c1Cl
TGI: > 100 µM
--
COMPOUND: CCOC(=O)C(C)(C)Oc1ccc2c(=O)cc(-c3ccccc3)oc2c1
TGI: 48.5 µM
--
COMPOUND: CC1(C)CCC[C@]23C(=O)O[C@](O)(C(=O)C4=C[C@@](C)(/C=C/CCCc5ccc6ccc7cccc8ccc5c6c78)CC[C@@]42O)[C@@H]13
TGI: 0.379 µM
--
COMPOUND: C=CCC(CNC(=O)OCc1ccccc1)O[Si](C)(C)C(C)(C)C (configuration not stated)
TGI: > 100 µM
--
COMPOUND: O=c1[nH]c(=O)n(C2OC(COP(=O)(O)OP(=O)(O)O)C(O)C2O)cc1F (configuration not stated)
TGI: > 50 µM
--
COMPOUND: Nc1nc2c(ncn2C2OC(CO)C(O)C2N)c(=O)[nH]1 (configuration not stated)
TGI: > 100 µM
--
COMPOUND: C=CN1C(=O)OC(c2ccccc2)C1c1ccccc1 (configuration not stated)
TGI: > 100 µM

----------
- System: MALME-3M melanoma
- PROTOCOL_NOTES: NCI tumour cell line growth inhibition, 48 h
Recorded TGI by entry

COMPOUND: COC(=O)C(=O)C1(CCC(C)=O)c2ccccc2-c2ccccc21
TGI: > 100 µM
//
COMPOUND: Cc1c2c3cc(O)ccc3nc-2n(C)c2ccccc12
TGI: 3.44 µM
//
COMPOUND: COc1cc(C)c(C(=O)O[C@H]2[C@H](O[C@H]3[C@@H](O)COC(O[C@H]4C[C@H]5[C@@H]6CC=C7C[C@@H](O)CC[C@]7(C)[C@H]6CC[C@]5(C)[C@H]4[C@H](C)C(=O)CCC(C)C)[C@@H]3OC(C)=O)OC[C@@H](O)[C@@H]2O)c(C)c1 (some centres undefined)
TGI: 5.89 µM
//
COMPOUND: COc1ccc(N2CCN(C(=O)c3ccccc3Nc3ccnc(C(F)(F)F)c3)CC2)cc1
TGI: > 100 µM
//
COMPOUND: COC(=O)c1sc(=S)sc1SCc1ccccc1CSc1sc(=S)sc1C(=O)OC
TGI: > 100 µM
//
COMPOUND: CC(=O)OCC1OC(OC2C(COC(C)=O)OC(OCCC[S-])C(OC(C)=O)C2OC(C)=O)C(OC(C)=O)C(OC(C)=O)C1OC(C)=O.[Au+].c1ccc(CN2[CH-]N(Cc3ccccc3)C(c3ccccc3)=C2c2ccccc2)cc1 (centres undefined)
TGI: 6.56 µM
//
COMPOUND: N#CCCC1C(C#N)C2CC1C1C3C=CC(C3)C21 (centres undefined)
TGI: > 100 µM
//
COMPOUND: COc1ccc(C(O)c2ccc3c(c2)OCO3)cc1 (centres undefined)
TGI: > 100 µM
//
COMPOUND: C/C(=N\NC(N)=O)C(CN1CCCCC1)C(c1ccccc1)c1c(O)c2ccccc2oc1=O (centres undefined)
TGI: > 100 µM
//
COMPOUND: COC(=O)[C@H](C)N1C(=O)N[C@@H](C(C)C)C1=O
TGI: > 100 µM
//
COMPOUND: Cc1cnc[nH]c1=O
TGI: > 100 µM
//
COMPOUND: CC(C)C[C@H](NC(=O)[C@H](CCc1ccccc1)NC(=O)CN1CCOCC1)C(=O)N[C@@H](Cc1ccccc1)C(=O)N[C@@H](CC(C)C)C(=O)[C@@]1(C)CO1
TGI: 0.586 µM
//
COMPOUND: Cc1ccc(Cl)cc1Nc1nc(C(F)(F)F)ccc1C(=O)Nc1cccc(C(F)(F)F)c1
TGI: 12.4 µM
//
COMPOUND: CCSc1oc(-c2ccccc2)nc1[P+](c1ccccc1)(c1ccccc1)c1ccccc1
TGI: 1.3 µM
//
COMPOUND: Nc1[nH]c(=O)ncc1F
TGI: > 100 µM
//
COMPOUND: CCOC1OCCCC1Br (centres undefined)
TGI: > 100 µM
//
COMPOUND: CCC1C(C)c2c([nH]c3ccccc23)C2C(=O)N(c3ccccc3)C(=O)C21 (centres undefined)
TGI: 30.4 µM
//
COMPOUND: CCOC(=O)c1sc(-c2ccc(OS(=O)(=O)c3cccs3)c(C=O)c2)nc1C
TGI: 5.69 µM
//
COMPOUND: Nc1ccc2c(c1)C(=O)c1ccccc1-2
TGI: > 100 µM
//
COMPOUND: CCCCc1c2c(nc3c1CCc1cc4c(nc1-3)-c1nc3c(c(CCCC)c1CC4)CCC/C3=C\c1ccccc1)/C(=C/c1ccccc1)CCC2
TGI: > 100 µM
//
COMPOUND: O=C1c2[nH]cc(CN3CCNCC3)c2C(=O)c2c1c(O)c1ccccc1c2O
TGI: 13.3 µM
//
COMPOUND: COc1cc([C@@H]2c3cc4c(cc3[C@@H](NC(=O)c3ccc(N)cc3)C3COC(=O)[C@@H]32)OCO4)cc(OC)c1O (some centres undefined)
TGI: 19.8 µM
//
COMPOUND: CCN(CC)CCO/N=C1\CC[C@H]2[C@@H]3CC=C4C[C@@H](O)CC[C@]4(C)[C@H]3CC[C@]12C
TGI: 29.7 µM
//
COMPOUND: Cc1nnc2cc(C(=O)O)c3ccccc3n2c1=O
TGI: > 10 µM
//
COMPOUND: CCCCC[C@@H]1OCO[C@@]2(C)/C=C(C)/C=C/C(=O)O[C@H]([C@@H](C)[C@@H](O)[C@H](C)[C@@]3(O)C[C@@H](O[C@H]4C[C@@H](O)[C@H](O)[C@@H](C)O4)[C@H](C)[C@@H](C)O3)[C@@H](OC)/C=C/C=C(\C)C[C@@H]1[C@@H]2O (stereo in doubt)
TGI: 0.308 µM
//
COMPOUND: S=c1nc[nH]c2c1ncn2Cc1ccco1
TGI: > 100 µM
//
COMPOUND: CC(C)(C)N=C1CC(C)(C)c2ccccc2C(=Nc2ccccc2)S1
TGI: 96.5 µM
//
COMPOUND: CC(NC(=O)/C(=C/c1ccccc1O)NC(=O)c1ccccc1)C(=O)O (centres undefined)
TGI: > 100 µM
//
COMPOUND: OC1CCCC1C(O)(C(F)(F)F)C(F)(F)F (centres undefined)
TGI: > 100 µM
//
COMPOUND: CCC1(CC)C(=O)CC[C@@]2(C)C1=CC[C@H]1[C@@H]3CC[C@H](O)[C@@]3(C)CC[C@@H]12
TGI: > 100 µM
//
COMPOUND: COc1ccc(/C=C/c2cc(O)cc(OC)c2)cc1
TGI: > 100 µM
//
COMPOUND: O=C(c1cc(O)ccc1O)c1ccccc1C(Cl)(Cl)Cl
TGI: > 100 µM
//
COMPOUND: NC(Cc1cc(I)c(O)c(I)c1)C(=O)O (centres undefined)
TGI: > 500 µM
//
COMPOUND: Clc1nc(-[n+]2ccc(-c3ccncc3)cc2)nc(Nc2ccccc2)c1Cl
TGI: > 100 µM
//
COMPOUND: O=C(c1ccc2ccccc2c1)C1S(=O)(=O)OCCOS1(=O)=O
TGI: > 100 µM
//
COMPOUND: COC(=O)c1ccc(-c2nc(C#N)c(N)o2)cc1
TGI: > 100 µM
//
COMPOUND: CCCCCCCCCCCC(=O)OCC1OC(n2cc(F)c(=O)[nH]c2=O)C(NC(=O)OCc2ccccc2)C(O)C1O (centres undefined)
TGI: 47.9 µM
//
COMPOUND: OCC(O)C(O)c1nn(-c2ccccc2)c2nc3cc(Cl)c(Cl)cc3nc12 (centres undefined)
TGI: 44.1 µM
//
COMPOUND: COc1cc(C2C3=C(CCC3=O)Oc3cc4c(cc32)OCO4)cc(OC)c1OC (centres undefined)
TGI: > 100 µM
